Data origin: patent US7189720B2

# testedTarget: human Y5 receptor (Homo sapiens, UniProt Q15761)
# Construct: expressed in transfected cells; host or cells: mouse fibroblast LM(tk-) cells, e.g. L-hY5-7 (ATCC CRL-11995)
# assayComment: Radioligand binding to membranes, cloned human Y5 receptor
# runParameters: Table 6; read-out: Ki, nM hNPY-5
Labelling: Ki reported below 7 nM becomes condition met; at or above becomes condition not met.

>>> classassignment("O=S(=O)(NCCCCCNc1nc2c(s1)CCSc1ccccc1-2)c1cccc2ccccc12")
"condition not met"
>>> classassignment("O=S(=O)(NCCCCCCNc1nc2c(s1)CCSc1ccccc1-2)c1cccc2nsnc12")
"condition met"
>>> classassignment("COCCN(C=O)[C@H]1CC[C@H](CNc2nc3c(s2)CCSc2ccc(F)cc2-3)CC1")
"condition not met"
>>> classassignment("Cc1cccc(F)c1S(=O)(=O)NCCCCNc1nc2c(s1)CCSc1ccccc1-2")
"condition not met"
>>> classassignment("O=S(=O)(NC[C@H]1CC[C@H](Nc2nc3c(s2)CCSc2ccccc2-3)CC1)c1cccc2nsnc12")
"condition met"
>>> classassignment("O=S(=O)(NCCCCCNc1nc2c(s1)CCSc1ccc(F)cc1-2)c1cccs1")
"condition met"
>>> classassignment("O=S(=O)(NC[C@H]1CC[C@H](Nc2nc3c(s2)CCSc2ccccc2-3)CC1)c1ccc(F)cc1")
"condition not met"
>>> classassignment("CS(=O)(=O)NCCCCCCNc1nc2c(s1)CCSc1ccccc1-2")
"condition not met"

---

# testedTarget: human Y5 receptor (Homo sapiens)
# Construct: expressed in transfected cells; host or cells: mouse fibroblast LM(tk-) cells, e.g. L-hY5-7 (ATCC CRL-11995)
# Sequence (Q15761 1-445): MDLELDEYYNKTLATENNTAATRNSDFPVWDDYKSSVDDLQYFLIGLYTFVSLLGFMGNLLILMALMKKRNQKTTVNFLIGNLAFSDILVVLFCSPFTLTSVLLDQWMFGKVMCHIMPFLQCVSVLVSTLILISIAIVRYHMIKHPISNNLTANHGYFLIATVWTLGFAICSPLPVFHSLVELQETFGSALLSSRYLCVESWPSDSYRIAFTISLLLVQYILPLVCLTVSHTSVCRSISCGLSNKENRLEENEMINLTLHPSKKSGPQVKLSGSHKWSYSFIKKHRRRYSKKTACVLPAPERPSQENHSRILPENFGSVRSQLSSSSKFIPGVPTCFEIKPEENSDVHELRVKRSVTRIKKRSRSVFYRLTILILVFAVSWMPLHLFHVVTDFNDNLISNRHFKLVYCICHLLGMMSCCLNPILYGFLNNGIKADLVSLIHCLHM
# assayComment: Radioligand binding to membranes, cloned human Y5 receptor
# runParameters: Table 5; read-out: Ki, nM hNPY-5
recordedEndpoint: Ki (nM)

>>> valueobserved("COCCN(C=O)[C@H]1CC[C@H](CNc2nc(-c3nc(C)sc3C)cs2)CC1")
407
>>> valueobserved("COc1ccc(C)cc1S(=O)(=O)NCCCCCNc1nc(-c2cccs2)cs1")
7.9
>>> valueobserved("COc1ccc(C)cc1S(=O)(=O)NCCCCCNc1nc(-c2cc(-c3ccccc3)on2)cs1")
891
>>> valueobserved("Cc1nc(-c2csc(NC[C@H]3CC[C@H](CNS(=O)(=O)N4CCOCC4)CC3)n2)c(C)s1")
3.3
>>> valueobserved("Cc1nc(-c2csc(NCCCCCNS(=O)(=O)c3ccc(F)cc3)n2)c(C)s1")
19.5
